# Subject Of Test: Nav1.5 sodium channel, peak current (INaP) (Homo sapiens, UniProt Q14524, form not given)
# Test Name: in vitro
# Measurement Parameters: Peak Na+ (INaP) IC50
Property Name: pIC50
pIC50 is defined as minus the log10 of a concentration measured in mol/L.

These solved cases illustrate the format of a correct answer.
| Compound | pIC50 |
| --- | --- |
| Cl.NC(COc1cc(C(F)(F)F)cc(C(F)(F)F)c1)c1ccccc1 (centres unmarked) | 4.70 |
| CNC(C)COc1c(C)cccc1C (centres unmarked) | 3.91 |
| COCCNC(COc1cccc(C)c1C)c1ccccc1 (racemic) | 4.59 |

Value lookup for pIC50; key = Cc1cc(C)cc(OCC(N)C2CC2)c1.Cl (centres unmarked)
4.11

Param item = Cc1ccc(OCC(N)c2ccccc2)c(C)c1.Cl (centres unmarked) ; retrieve measured pIC50.
4.66
